The measured values listed here are drawn from patent US20100168170A1.

experimental system: PDE4 enzyme (U937 lysate or recombinant hPDE4)
protocol details: In vitro inhibition of PDE4 phosphodiesterases ([3H]cAMP SPA enzyme assay, Method A)
experimental setup: Biological Example 1, Method A
pIC50: −log10 of the molar value.
Parameter threshold = 6. Response is condition met when pIC50 meets or exceeds it, else condition not met.

compound: COc1ccc([C@H]2CNC(=O)[C@@H](Cc3cccc(OCc4ccccc4)c3)C2)cc1OC1CCCC1
class: condition met

compound: COc1ccc([C@H]2CNC(=O)[C@H](Cc3ccc(Oc4ccccc4)cc3)C2)cc1OC1CCCC1
class: condition met

compound: COc1ccc([C@H]2CNC(=O)[C@H](CCCCCc3ccccc3)C2)cc1OC1CCCC1
class: condition met

compound: CCOc1cc([C@H]2CNC(=O)C(Cc3ccc(F)cc3)(Cc3ccc(F)cc3)C2)ccc1OC
class: condition not met

compound: COc1ccc([C@H]2CNC(=O)[C@H](Cc3ccc(F)c(F)c3)C2)cc1OC1CCCC1
class: condition met

compound: COc1ccc([C@@H]2C[C@H](Cc3cccc(C)c3)C(=O)N(CC(C)C)C2)cc1OC1CCCC1
class: condition not met

compound: CCCNc1cccc(C[C@@H]2C[C@@H](c3ccc(OC)c(OC4CCCC4)c3)CNC2=O)c1
class: condition met

compound: COc1cc(CC2C[C@@H](c3ccc(OC)c(-c4ccccc4)c3)CNC2=O)ccc1OC1CCCC1 (stereo partly shown)
class: condition met

compound: COc1cc(CC2C[C@@H](c3ccc(OC)c(OC4CCCC4)c3)CNC2=O)ccc1OC1CCCC1 (stereo partly shown)
class: condition met
